test.system: T1, murine CD300LB stably expressed on Jurkat cells (mouse, UniProt Q3U497 18-209)
T1 construct: also called muCD300LB; mouse CD300LB
T1 sequence: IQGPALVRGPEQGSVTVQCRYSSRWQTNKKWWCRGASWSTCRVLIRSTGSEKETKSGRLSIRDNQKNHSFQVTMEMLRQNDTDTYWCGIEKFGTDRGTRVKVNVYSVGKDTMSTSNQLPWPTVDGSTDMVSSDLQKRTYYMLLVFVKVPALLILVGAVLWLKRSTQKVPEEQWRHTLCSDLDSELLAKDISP
protocol.summary: flow cytometry, stable Jurkat cells, supernatant or 10 ug/mL, isotype subtracted
recorded.endpoint: gMFI (gMFI)
One number for each entry, in gMFI.

# example entries with known answers
binder | gMFI [gMFI]
anti-CD300LB antibody CD-11 (antibody, V domains shown) VH: QIQLVQSGPEVKKPGETVKISCKASGYTLTDYSMHWVMQTPGTGLKWMAWMNTETGEPTYADDFKGRFAFSLETSAGTAYLQIDNLKNEDTATYFCATYGKSYGMKYWGQGTSVTVSS VL: DIVLTQSPPSLAVSLGQRATISCRATKSVSPYLHWYQQTPGQPPKLLIYLASNLDSGVPARFSGSGSGTDFTLNIHPVEEEDAATYYCQHNKELPPTFGGGTRLEIK | 320
anti-CD300LB antibody CD-16 (antibody, V domains shown) VH: QIQLVQSGPELKKPGETVKISCKASGYTFTDYSMHWVKQAPGKGLKWMAWINTETGEPTYADDFRGRFAFSLETSGRTAYLEINNLRNEDTATYFCVTYGSSYGMAYWGQGTSVTVSS VL: DIVLTQSPASLAVSLGQRATISCRASKSVSRSGYSYLHWYQQKPGQPPKLLIYLASKLESGVPARFSGSGSGTDFTLNIHPVEAEDAATYYCQHNREIPPTFGGGTKLEIK | 504
anti-CD300LB antibody CD-04 (antibody, V domains shown) VH: QVQLQQSGAELVRPGASVTLSCRASGYTFTDFEMHWVKQTPLHGLEWIGAIAPETGGTAYNQKFKGKAILTADKSSSTAYVELRSLTSEDSAVYFCTRLGGMDYWGQGTSVTVSS VL: DVVMTQTPLSLPVSLGDQASISCRSSQTLVHNNGNTYLYWYLQKPGQSPKLLIYQVSNRFFGVPDRFSGSGSGTDFTLKISRVEAEDLGLYFCSQSTHVPWTFGGGTKLEIK | 18

API: the following record is the query input.
Task item: What does the record list as gMFI for anti-CD300LB antibody CD-17 (antibody, V domains shown) VH: QIQLVQSGPELKKPGETVKISCKASGYTLTDYSMHWVKQAPGKGLKWMGWINTETGEPRYGDDFKGRFAFSLETSASSAYLQINNLKNDDTATYFCATYGRSYGMDFWGQGTSVTVSS VL: DIVLTQSPASLAVSLGQRATISCRASKSVSPSGHSYMHWYQQKPGQPPKLLIYLASNLKSGVPARFSGSGSGTDFTLNIHPVEEGDAATYYCQHNRELPPTFGGGSKLEIK ?
Reply: 1680
